Experiment: Cmax in African green monkey assessed as prodrug conversion by measuring (2R,3R,4S,5R)-2-(4-aminopyrrolo[2,1-f][1,2,4]triazin-7-yl)-3,4-dihydroxy-5-(hydroxymethyl)tetrahydrofuran-2-carbonitrile at 86.5 mg/kg, po measured upto 24 hrs by LC-MS/MS analysis
Assay type: ADME, organism-based
Parameters: dose 86.5 mg/kg, time < 24 hrs, route po
Conditions: chlorocebus sabaeus, in vivo
measurement.type: Cmax

CC(C)C(=O)OC[C@H]1O[C@@](C#N)(c2ccc3c(N)ncnn23)[C@H](O)[C@@H]1O	19.6 µM

* * *

Tested on: PC-3
Assay: Cytotoxicity against human PC-3 cells assessed as reduction in cell growth measured after 5 days by CellTiter-Glo assay
Assay type: toxicity, cell-based
Conditions: pc-3, 120 h, time 5 day
measurement.type: CC50 (nM)

COc1ccc(C[C@H](N)C(=O)N[C@H]2[C@@H](O)[C@H](n3cnc4c(N(C)C)ncnc43)O[C@@H]2CO)cc1	470
